Kindly supply the reported GI50 values for the records listed here.
- Test system: MOLT-4
- Assay info: NCI tumour cell line growth inhibition, 48 h
Activity calls are given as the source filed them. No stated cut-off is given here; in the data, active = GI50 up to about 1.1 µM and inactive = higher.

The molecule listed as CC1CC/C(=C\c2ccc(Cl)cc2)c2nc(N)c(C#N)c(-c3ccc(Cl)cc3)c21 (stereo unspecified) shows GI50 equal to 14.1 µM (inactive)

GET /value?item= N=c1oc2c(Cl)cc(Cl)cc2cc1C(=O)Nc1ccccn1 &field=GI50 returns 8.24 µM (inactive)

For reference, reported GI50 for COc1cc(NS(C)(=O)=O)ccc1N1Cc2c[nH]c3ccc4nc(C)cc1c4c23 stands at 48.5 µM (inactive)

For record Cc1nnc2c3nnc(C)n3c3ccccc3n12 the listed GI50 is > 100 µM (inactive)

Briefly, GI50 measured for Cc1ccc(S(=O)(=O)NC(=O)C2C(=O)CC3(CCCCC3)CC2=O)cc1 : 42.4 µM (inactive)

// field: GI50; key: N#CC1=C(N)OC2=C(CCCc3ccc([N+](=O)[O-])cc32)C1c1ccccc1 (stereo unspecified) ; value = 3.69 µM (inactive)
